Target: T1, human CD1a expressed on cells (human, UniProt P06126 17-327; P61769 21-119)
T1 construct: also called HEK - CD1a; C1R - CD1a
Assay: flow cytometry, C1R cells, 10 µg/ml antibody
property_label: Fluorescence Intensity Geomean (normalized to background) (fold over background)
Could you give me the number in fold over background? Just the number is fine.

INPUT: Supply reported Fluorescence Intensity Geomean (normalized to background) belonging to this binder: 77A (VR11851) (antibody, V domains shown, also called OX77a; antibody 77a) VH: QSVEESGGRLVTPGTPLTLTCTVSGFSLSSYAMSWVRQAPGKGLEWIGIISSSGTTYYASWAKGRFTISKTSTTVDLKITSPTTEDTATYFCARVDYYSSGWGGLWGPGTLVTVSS VL: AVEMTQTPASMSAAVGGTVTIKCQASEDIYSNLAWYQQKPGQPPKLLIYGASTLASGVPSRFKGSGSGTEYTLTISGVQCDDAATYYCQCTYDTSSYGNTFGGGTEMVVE
OUTPUT: 2.3

INPUT: Tell me measured Fluorescence Intensity Geomean (normalized to background) for 116 (VR12117) (antibody, V domains shown, also called OX116) VH: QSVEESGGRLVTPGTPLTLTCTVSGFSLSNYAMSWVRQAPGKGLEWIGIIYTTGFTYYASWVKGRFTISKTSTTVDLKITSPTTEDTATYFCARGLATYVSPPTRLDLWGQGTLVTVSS VL: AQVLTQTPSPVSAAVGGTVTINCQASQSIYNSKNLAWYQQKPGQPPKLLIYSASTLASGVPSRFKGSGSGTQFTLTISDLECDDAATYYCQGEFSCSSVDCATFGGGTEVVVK please.
OUTPUT: 16.9

INPUT: Look up and state reported Fluorescence Intensity Geomean (normalized to background) for 111 (VR12113) (antibody, V domains shown, also called OX111) VH: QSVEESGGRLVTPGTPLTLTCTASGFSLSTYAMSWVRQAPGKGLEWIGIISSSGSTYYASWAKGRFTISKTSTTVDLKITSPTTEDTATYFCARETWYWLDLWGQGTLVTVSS VL: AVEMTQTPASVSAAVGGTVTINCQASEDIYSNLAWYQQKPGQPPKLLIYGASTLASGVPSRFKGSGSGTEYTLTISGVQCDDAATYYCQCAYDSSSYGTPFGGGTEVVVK
OUTPUT: 11.7

INPUT: Retrieve Fluorescence Intensity Geomean (normalized to background) measured for 110 (VR12112) (antibody, V domains shown, also called OX110; antibody 110) VH: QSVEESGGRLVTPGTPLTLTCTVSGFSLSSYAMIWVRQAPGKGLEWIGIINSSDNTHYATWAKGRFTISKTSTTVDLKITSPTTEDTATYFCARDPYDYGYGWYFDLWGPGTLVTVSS VL: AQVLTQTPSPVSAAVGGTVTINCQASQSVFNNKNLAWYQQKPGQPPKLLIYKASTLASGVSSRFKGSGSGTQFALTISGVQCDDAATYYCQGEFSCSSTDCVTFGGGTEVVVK and print it.
OUTPUT: 8.3

Sourced from patent US20250289893A1
